Assign TGI to each entry below.
System: MDA-MB-231 breast
Experiment: NCI tumour cell line growth inhibition, 48 h

Before answering, review these 6 worked examples.
COMPOUND | METRIC | RECORDED VALUE
[O]=[W](=[O])([OH])[OH] | TGI | > 100 µM
COC(=O)CCSC1=CC(=O)c2nc3ccccc3c3ccnc1c23 | TGI | > 70.7 µM
O=C(/C=C/c1ccc(O)cc1)c1cc(O)cc(O)c1 | TGI | 30.4 µM
Cc1cn(CCCCOC(=O)NC(CCCNC(N)=O)C(=O)O)c(=O)[nH]c1=O (stereo unspecified) | TGI | > 100 µM
Nc1ccc(-c2nc3ccccc3s2)cc1F | TGI | 79 µM
COc1cc2c(cc1OC)CN1CCc3ccccc3CC1C2 (stereo unspecified) | TGI | > 100 µM

# return TGI for each item in the list
1. N#C/C(=C\c1ccc([N+](=O)[O-])s1)c1nc2cc(Br)ccc2s1
2. O=C1c2ccccc2-n2c1nc1cc(Cl)ccc1c2=O

a:
1: 0.43 µM; 2: > 100 µM

# return TGI for each item in the list
1. CC(=O)[C@]1(C)[C@H](C)O[C@](C)(CO)[C@H]1O[Si](C)(C)c1ccccc1
2. O=C1C(Cl)C(c2cccc(Br)c2)N1c1c(O)c(Cl)cc(Br)c1Cl (stereo unspecified)
3. O=C(O)CP(=O)(c1ccccc1)c1ccccc1.O=C(O)CP(=O)(c1ccccc1)c1ccccc1.[Cd]

a:
1. > 100 µM
2. 46 µM
3. 32.2 µM

----------
Test system: MDA-MB-435
Experiment: NCI tumour cell line growth inhibition, 48 h
METRIC: TGI

COMPOUND | RECORDED VALUE
Cc1cn(C2CC(N=[N+]=[N-])C(C(=O)O)O2)c(=O)[nH]c1=O (stereo not given) | > 100 µM
COc1ccc(NC(=O)CC(=O)n2nc(-c3ccccc3)c(N=Nc3ccccc3C)c2-c2ccccc2)cc1 | > 100 µM
Cc1n(-c2ccccc2)c2c([n+]1Cc1ccc([N+](=O)[O-])cc1)C(=O)c1ccccc1C2=O | 3.12 µM
Cc1ccc(-c2n[nH]c(=O)n2N2C(=O)C=CC2=O)cc1 | > 100 µM

// switching to the query compound
q: // TGI lookup, key: "C=CCN1C[C@@H](C)N([C@@H](c2ccccc2)c2ccc(C(=O)N(CC)CC)cc2)C[C@@H]1C"
a: > 100 µM

----------
Assign TGI to each entry below.
Test system: SNB-78 CNS
Assay: NCI tumour cell line growth inhibition, 48 h

Before answering, review these 2 worked examples.
COMPOUND | METRIC | RECORDED VALUE
CCOC1=C2C(C)(CCC3[C@@]4(C)C=CC(=O)C(C)(C)C4CC(O)[C@@]23C)C(c2ccoc2)C1=O (some centres not stated) | TGI | > 100 µM
NC(=O)OCC(COc1ccc(Cl)cc1)OC(=O)c1cc([N+](=O)[O-])cc([N+](=O)[O-])c1 (configuration not stated) | TGI | > 100 µM

# return TGI for each item in the list
1. CN/N=C(/CC(=O)c1sc(-n2nc(-c3ccccc3)cc2-c2ccccc2)nc1C)C(=O)Nc1ccc(Cl)c(Cl)c1
2. Cc1n(CC(C)C)c2c([n+]1CC(=O)c1ccc([N+](=O)[O-])cc1)C(=O)c1ccccc1C2=O
3. COc1ccc2c([nH]c3cc(O)c(C)cc32)c1CC=C(C)C
4. CCOC(=O)NN(C(=O)OCC)C(C(=O)c1ccc(Cl)cc1)=C1NCCN1
5. C=C(CN(C)C)C(=O)c1ccc(OC)cc1
6. COc1cc2c(cc1OC)C1(c3ccccc3)ON=C(c3ccccc3)N1CS2 (configuration not stated)
7. CCCCCCCCCCNC(=S)OCCCC

a:
["> 100 µM", "0.107 µM", "> 25 µM", "> 100 µM", "7.83 µM", "> 100 µM", "88.4 µM"]

# return TGI for each item in the list
1. CCCC(=O)[O-].CCCC(=O)[O-].N.N.N.N.[Co+3].[O-][Cl+3]([O-])([O-])[O-]
2. CCOc1ccc(N=Nc2c(-c3ccccc3)nn(C(=O)CC(=O)Nc3cccc(C)c3)c2-c2ccccc2)cc1
3. O=C(CC(=O)c1cccc([N+](=O)[O-])c1)C(=O)Nc1nc([N+](=O)[O-])cs1
4. CO[C@]12CCC(=O)N1C=Cc1c2[nH]c2ccccc12
5. CC(C)N(C(=O)C12C3C4C5C3C1(C#N)C5C42)C(C)C (configuration not stated)
6. CCCCCCCCCCCCCC(=O)OC1C(CO)OC(=O)C1O (configuration not stated)
7. NC(N)=NCCCC(NCc1c2ccccc2[n+]([O-])c2ccccc12)C(=O)O (configuration not stated)

a:
> 100 µM
> 100 µM
> 100 µM
> 100 µM
> 100 µM
> 100 µM
> 100 µM

q: // TGI lookup, key: "COc1cc(O)c2c(c1O)C(=O)c1cc(C)ncc1C2=O"
a: > 50 µM

----------
Tested on: SK-OV-3 ovarian
Assay: NCI tumour cell line growth inhibition, 48 h
METRIC: TGI

Before answering, review these 5 worked examples.
COMPOUND | METRIC | RECORDED VALUE
N#CC(C(=O)C(=O)Nc1ccc(Cl)c(Cl)c1)c1ccc(Cl)cc1 (stereo unspecified) | TGI | > 100 µM
Cc1n(CC(C)C)c2c([n+]1CC(=O)c1ccc([N+](=O)[O-])cc1)C(=O)c1ccccc1C2=O | TGI | 0.869 µM
Nc1ccc(-c2nc3ccccc3s2)cc1F | TGI | > 100 µM
Cc1ccc(C(O)/C(=N/N)c2nc3ccc([N+](=O)[O-])cc3[nH]c2=O)cc1 (stereo unspecified) | TGI | > 100 µM
NC(N)=NCCCC(NCc1c2ccccc2[n+]([O-])c2ccccc12)C(=O)O (stereo unspecified) | TGI | > 100 µM

# return TGI for each item in the list
1. Cc1cn(CCCCOC(=O)NC(CCCNC(N)=O)C(=O)O)c(=O)[nH]c1=O (stereo unspecified)
2. N#Cc1nc(NC(=O)c2ccccc2)sc1N
3. O=c1[nH]c(=O)n(C2OC(CO)C(O)C2O)cc1OCc1ccccc1 (stereo unspecified)
4. CC1=C2c3ccccc3N(S(=O)(=O)c3ccccc3)[C@H]2[C@H](C(=O)N2C3CC4CC[C@@]3(CS2(=O)=O)C4(C)C)CC1 (stereo partly specified)
5. CCNC(=O)c1ccc2c(c1)nc(-c1ccc(Cl)cc1)n2-c1cc(C(C)(C)C)[nH]n1

a:
["> 100 µM", "> 10 µM", "> 100 µM", "> 100 µM", "17.3 µM"]

----------
Assign TGI to each entry below.
Test system: HS 578T breast
Experiment: NCI tumour cell line growth inhibition, 48 h

Before answering, review these 5 worked examples.
COMPOUND | TGI
CCc1cccc(CC)c1NC(=O)c1ccn2c1CCc1cnc(Nc3ccc(N4CCN(C)CC4)cc3OC)nc1-2 | 11 µM
COC(=O)c1cc(NC(=O)CN(CCN(CC(=O)O)CC(=O)Nc2ccc(O)c(C(=O)OC)c2)CC(=O)O)ccc1O | > 100 µM
CN(C)c1ccc(/C=C2\N=C(c3ccccc3)N(/N=C3\C(=O)Nc4ccccc43)C2=O)cc1 | > 100 µM
O=C(Nc1ccc(O)c(NS(=O)(=O)c2ccc(F)cc2)c1)c1ccc(-c2ccccc2)cc1 | 31.8 µM
Cc1cc(O)c(O)c(Oc2cc(C)cc(O)c2O)c1 | > 100 µM

# return TGI for each item in the list
1. CC(=O)OC1CC(C)c2c(Cl)ncnc21 (stereo not given)
2. COc1cc2c(cc1O)-c1c(OC)c(O)cc3c1C(C2)N(C)CC3 (stereo not given)
3. COc1ccc(NC(=O)CC(=O)n2nc(-c3ccccc3)c(N=Nc3ccccc3C)c2-c2ccccc2)cc1
4. O=C1C(Cl)=C(Nc2ccccn2)C(=O)c2ccccc21
5. COc1cc(C2C(C(=O)OCc3ccccc3)=C(C)NC(C)=C2C(=O)OCc2ccccc2)cc(OC)c1OC

a:
> 100 µM
> 100 µM
35.6 µM
> 100 µM
> 100 µM

----------
Assign TGI to each entry below.
Test system: HL-60(TB) leukemia
Assay: NCI tumour cell line growth inhibition, 48 h
Where a SMILES comes first, the peptide text is derived from it. The star is where a group is joined. Boc = CC(C)(C)OC(=O)*; OBn = c1ccc(CO*)cc1

Before answering, review these 2 worked examples.
COMPOUND | EXPERIMENTAL TARGET | TGI
Cc1n(CC(C)C)c2c([n+]1CC(=O)c1ccc([N+](=O)[O-])cc1)C(=O)c1ccccc1C2=O | HL-60(TB) leukemia | < 0.01 µM
Oc1c2c(c3c4c1N=CC=4CCN=3)C1(C=C(Br)C(O)C(Br)=C1)CCN2 (stereo not drawn) | HL-60(TB) leukemia | 2.08 µM

# return TGI for each item in the list
1. N#Cc1nc(Nc2ccc(Cl)cc2)sc1N
2. COc1cc2c(cc1OC)CN1CCc3ccccc3CC1C2 (stereo not drawn)
3. CC(C)C(NC(=O)CNC(=O)C1CCCN1C(=O)C(NC(=O)OC(C)(C)C)C(C)C)C(=O)NCC(=O)OCc1ccccc1 (stereo not drawn) (Boc-VPGVG-OBn; configuration not given here)
4. COC(=O)C(CCSc1ccccc1)C(=O)OC
5. COc1ccc2cc(C(=O)/C=C/c3ccco3)ccc2c1
6. Nc1nc(Sc2ccc([N+](=O)[O-])cn2)c2[nH]cnc2n1

a:
["> 76.7 µM", "> 100 µM", "> 100 µM", "> 100 µM", "83.3 µM", "> 59.4 µM"]
